- experimental_target: Active Human ERK2 (hERK2) (Homo sapiens (Human), UniProt P28482)
- Sequence (P28482 whole entry): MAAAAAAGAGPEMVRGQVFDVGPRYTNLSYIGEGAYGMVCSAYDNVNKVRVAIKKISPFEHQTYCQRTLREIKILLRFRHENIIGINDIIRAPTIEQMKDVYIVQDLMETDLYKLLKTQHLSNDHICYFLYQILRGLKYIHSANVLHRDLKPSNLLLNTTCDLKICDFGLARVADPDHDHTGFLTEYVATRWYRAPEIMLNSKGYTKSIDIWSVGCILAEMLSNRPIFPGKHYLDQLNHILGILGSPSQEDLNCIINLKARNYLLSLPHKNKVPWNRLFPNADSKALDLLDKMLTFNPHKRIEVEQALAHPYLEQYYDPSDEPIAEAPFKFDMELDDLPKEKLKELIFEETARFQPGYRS
- measurement_protocol: Active Human ERK2 (hERK2) Activity Assay (IMAP-FP)
- Assay type: biochemical
- reported_conditions: phosphorylated active hERK2, 30 μM ATP; average; read-out: ERK 2 Human average IC50

[
  {
    "compound": "Cc1cc(-c2n[nH]c3cc(NC(=O)N[C@H]4CN(C)C[C@@H]4c4ccccc4F)ncc23)ccn1 [Example 183]",
    "IC50, µM": 0.000662
  },
  {
    "compound": "O=C(Nc1cc2[nH]nc(C(F)F)c2cn1)N[C@H](COCC1CC1)c1ccccc1 [Example 693]",
    "IC50, µM": 0.0214
  },
  {
    "compound": "Cc1cc(-c2n[nH]c3cc(NC(=O)NC(C)C4CCOC4)ncc23)ccn1 (centres unmarked) [Example 528]",
    "IC50, µM": 0.0127
  },
  {
    "compound": "Cc1cc(-c2n[nH]c3cc(NC(=O)N[C@H]4CN[C@H](c5ccccc5)C4)ncc23)ccn1 [Example 374]",
    "IC50, µM": 0.351
  },
  {
    "compound": "COC(=O)C(NC(=O)Nc1cc2[nH]nc(-c3ccnc(C)c3)c2cn1)C(F)(F)F (centres unmarked) [Example 457]",
    "IC50, µM": 0.0312
  },
  {
    "compound": "Cc1cc(-c2n[nH]c3cc(NC(=O)N[C@H](C)c4ccccc4)ncc23)cnn1 [Example 91]",
    "IC50, µM": 0.000878
  },
  {
    "compound": "CO[C@H]1CN(C(=O)c2n[nH]c3cc(NC(=O)N[C@H](C)c4ccccc4)ncc23)C[C@@H]1O [Example 130]",
    "IC50, µM": 1.97
  },
  {
    "compound": "Cc1cc(-c2n[nH]c3cc(NC(=O)NC4CCCOc5ccccc54)ncc23)ccn1 (centres unmarked) [Example 274]",
    "IC50, µM": 0.000494
  }
]

Reference source for all entries: patent US9023865B2
